test system: HEK293/hPRLR/STAT5-Luc cells (human PRLR); assay: STAT5-Luc luciferase reporter assay, blocking of PRL-mediated receptor activation; format: cell-based; conditions: 100 nM antibody, 5 nM PRL
MEASURED ATTRIBUTE: Percent Blocking at 100 nM Antibody (%)

{"MOLECULE": "H1H6975N: human IgG1 Fc form of H2M6975N; anti-PRLR; HCVR/LCVR SEQ ID NOs 370/378 (antibody, V domains shown, human IgG1 Fc) VH: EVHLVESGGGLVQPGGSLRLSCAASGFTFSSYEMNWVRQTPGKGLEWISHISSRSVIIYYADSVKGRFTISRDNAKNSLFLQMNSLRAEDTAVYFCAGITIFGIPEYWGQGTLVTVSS VL: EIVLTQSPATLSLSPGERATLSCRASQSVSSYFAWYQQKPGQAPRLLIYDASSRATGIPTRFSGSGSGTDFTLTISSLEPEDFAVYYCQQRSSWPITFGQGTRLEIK", "ASSAY VALUE": 100}
{"MOLECULE": "H1H6797P: anti-PRLR antibody, human IgG1 Fc; HCVR/LCVR SEQ ID NOs 178/186 (antibody, V domains shown, human IgG1 Fc) VH: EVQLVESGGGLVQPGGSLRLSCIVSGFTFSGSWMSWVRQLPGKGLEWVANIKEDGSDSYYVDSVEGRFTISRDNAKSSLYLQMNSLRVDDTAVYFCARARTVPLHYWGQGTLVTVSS VL: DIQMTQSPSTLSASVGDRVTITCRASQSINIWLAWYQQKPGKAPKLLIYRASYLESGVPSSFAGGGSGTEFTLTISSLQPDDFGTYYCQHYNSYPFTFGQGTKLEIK", "ASSAY VALUE": 0}
{"MOLECULE": "H1H6953N: human IgG1 Fc form of H1M6953N; anti-PRLR; HCVR/LCVR SEQ ID NOs 274/282 (antibody, V domains shown, human IgG1 Fc) VH: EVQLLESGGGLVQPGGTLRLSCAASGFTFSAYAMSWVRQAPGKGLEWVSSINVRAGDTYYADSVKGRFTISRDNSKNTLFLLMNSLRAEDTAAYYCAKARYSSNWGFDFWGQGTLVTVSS VL: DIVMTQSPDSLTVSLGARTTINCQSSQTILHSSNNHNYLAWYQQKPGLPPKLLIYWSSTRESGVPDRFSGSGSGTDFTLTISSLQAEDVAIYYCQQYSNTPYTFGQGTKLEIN", "ASSAY VALUE": 100}
{"MOLECULE": "H1H6792P: anti-PRLR antibody, human IgG1 Fc; HCVR/LCVR SEQ ID NOs 130/138 (antibody, V domains shown, human IgG1 Fc) VH: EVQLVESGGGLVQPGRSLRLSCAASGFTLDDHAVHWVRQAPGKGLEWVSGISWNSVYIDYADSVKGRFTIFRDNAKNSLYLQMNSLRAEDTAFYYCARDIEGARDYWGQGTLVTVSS VL: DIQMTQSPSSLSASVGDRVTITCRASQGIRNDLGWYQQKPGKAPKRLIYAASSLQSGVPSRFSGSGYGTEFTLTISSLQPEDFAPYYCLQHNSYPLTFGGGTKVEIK", "ASSAY VALUE": 100}
{"MOLECULE": "H1H6782P: anti-PRLR antibody, human IgG1 Fc; HCVR/LCVR SEQ ID NOs 66/74; non-blocking (antibody, V domains shown, human IgG1 Fc) VH: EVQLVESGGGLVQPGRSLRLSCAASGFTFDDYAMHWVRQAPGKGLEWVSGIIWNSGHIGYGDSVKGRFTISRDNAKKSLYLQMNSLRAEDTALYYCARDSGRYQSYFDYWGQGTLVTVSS VL: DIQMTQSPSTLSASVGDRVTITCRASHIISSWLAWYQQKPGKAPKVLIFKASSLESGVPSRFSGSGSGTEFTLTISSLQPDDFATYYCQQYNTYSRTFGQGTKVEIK", "ASSAY VALUE": 0}
{"MOLECULE": "H1H6967N: human IgG1 Fc form of H2M6967N; anti-PRLR; HCVR/LCVR SEQ ID NOs 354/362 (antibody, V domains shown, human IgG1 Fc) VH: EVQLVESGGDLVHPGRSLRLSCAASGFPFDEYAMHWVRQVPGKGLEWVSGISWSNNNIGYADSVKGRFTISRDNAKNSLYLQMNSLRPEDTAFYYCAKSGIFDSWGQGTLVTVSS VL: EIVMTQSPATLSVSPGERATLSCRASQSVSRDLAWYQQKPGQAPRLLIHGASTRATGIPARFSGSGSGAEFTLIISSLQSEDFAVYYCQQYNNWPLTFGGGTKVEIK", "ASSAY VALUE": 100}
{"MOLECULE": "H1H6959N2: human IgG1 Fc form of H2M6959N2; anti-PRLR; HCVR/LCVR SEQ ID NOs 306/314 (antibody, V domains shown, human IgG1 Fc) VH: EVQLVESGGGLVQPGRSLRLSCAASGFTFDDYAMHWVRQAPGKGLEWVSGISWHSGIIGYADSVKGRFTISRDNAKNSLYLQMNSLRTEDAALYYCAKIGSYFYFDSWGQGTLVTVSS VL: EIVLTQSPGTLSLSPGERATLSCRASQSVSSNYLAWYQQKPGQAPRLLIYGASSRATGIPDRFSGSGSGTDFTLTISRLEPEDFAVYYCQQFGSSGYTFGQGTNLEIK", "ASSAY VALUE": 52}
{"MOLECULE": "H1H6804P: anti-PRLR antibody, human IgG1 Fc; HCVR/LCVR SEQ ID NOs 242/250 (antibody, V domains shown, human IgG1 Fc) VH: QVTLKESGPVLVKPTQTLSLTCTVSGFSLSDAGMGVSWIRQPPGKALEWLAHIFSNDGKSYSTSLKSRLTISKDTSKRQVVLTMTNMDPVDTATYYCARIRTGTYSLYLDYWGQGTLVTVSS VL: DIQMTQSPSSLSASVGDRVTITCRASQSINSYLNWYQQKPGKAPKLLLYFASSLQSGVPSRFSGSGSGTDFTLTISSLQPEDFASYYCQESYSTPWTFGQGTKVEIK", "ASSAY VALUE": 100}

These data points were gathered from patent US9688764B2.
